Each recorded value in this set is attributed to the kinase profiling compilation of Christmann-Franck et al. (2016).

# Study Target: IKBKE (human)
# Assay Remarks: radiometric filter-binding kinase assay
# Measurement Parameters: compound 10.0 µM
Property Measured: residual activity (%)

Compound: NCC(=O)Nc1ccc(-n2nc(C(F)(F)F)cc2-c2ccc3c(ccc4ccccc43)c2)cc1
Test Result: 101
//
Compound: O=C(NOCC(O)CO)c1ccc(F)c(F)c1Nc1ccc(I)cc1Cl (stereo not given)
Test Result: 103
//
Compound: O=C1Nc2nc(-c3c(O)cccc3OCC3CC3)cc(C3CCCNC3)c2CO1 (stereo not given)
Test Result: 74
//
Compound: CCCC(CCC)C(=O)O
Test Result: 101
//
Compound: CC(C)(C#N)c1ccc(N2C(=O)OCc3cnc4ccc(-c5cnc6ccccc6c5)cc4c32)cc1
Test Result: 97

----------
# Study Target: EEF2K (human)
# Assay Remarks: radiometric filter-binding kinase assay
# Measurement Parameters: compound 1.0 µM
Property Measured: residual activity (%)

Molecule: c1ccc2c(-c3cnn4cc(-c5ccc(N6CCNCC6)cc5)cnc34)ccnc2c1
Endpoint Unit: %
residual activity: 96
--
Molecule: O=C(O)c1ccc(-c2c[nH]c3ncc(-c4ccccc4)cc23)cc1C1CCCC1
Endpoint Unit: %
residual activity: 110
--
Molecule: CNc1nc(-c2ccc3c(N)n[nH]c3c2)cc(N2C[C@@H](C(=O)NC3CCCCC3)CC[C@H]2C)n1
Endpoint Unit: %
residual activity: 105
--
Molecule: Cc1cccc(-c2nn(C(=S)Nc3ccccc3)cc2-c2ccnc3ccccc23)n1
Endpoint Unit: %
residual activity: 100
--
Molecule: Cn1nc(Nc2ccc(F)cc2)c2c(N)ncnc21
Endpoint Unit: %
residual activity: 102
--
Molecule: C=C1C(=O)OC2C1CC/C(C)=C/CCC1(C)OC21 (stereo not given)
Endpoint Unit: %
residual activity: 107
--
Molecule: Cc1nc(-c2ccc(OCC(C)C)c(C#N)c2)sc1C(=O)O
Endpoint Unit: %
residual activity: 102
--
Molecule: CC1=C(CO)C(=O)O[C@@H]([C@@H](C)[C@H]2CC[C@H]3[C@@H]4C[C@H]5O[C@]56[C@@H](O)C=CC(=O)[C@]6(C)C4CC[C@]23C)C1 (stereo not given in full)
Endpoint Unit: %
residual activity: 100
--
Molecule: COc1ccc(N(C(=O)Nc2c(C)cccc2C)c2cc(Nc3ccc(N4CCN(C)CC4)cc3)ncn2)c(OC)c1
Endpoint Unit: %
residual activity: 89
--
Molecule: N#Cc1c(C2CCNCC2)cc(-c2c(O)cccc2OCC2CC2)nc1N
Endpoint Unit: %
residual activity: 90

----------
# Study Target: MAPK10 (human)
# Assay Remarks: radiometric filter-binding kinase assay
# Measurement Parameters: compound 0.1 µM
Property Measured: residual activity (%)

Reference set, count: 4
Molecule: CCCCCc1ccc(/C=C/[C@H](O)[C@@H](CO)NC)cc1
Test Result: 93
//
Molecule: c1ccc2c(-c3cnn4cc(-c5ccc(N6CCNCC6)cc5)cnc34)ccnc2c1
Test Result: 98
//
Molecule: C=CC(=O)N1CCC[C@@H](n2nc(-c3ccc(Oc4ccccc4)cc3)c3c(N)ncnc32)C1
Test Result: 84
//
Molecule: O=C(N[C@@H](COc1ccc2[nH]c(=O)[nH]c2c1)c1ccccc1)c1cccn(Cc2ccc(F)c(F)c2)c1=O
Test Result: 101

A. Cc1cc(NC(=O)c2cccc(NC(=O)/C=C/CN(C)C)c2)ccc1Nc1nccc(-c2cccnc2)n1
B. NC1(c2ccc(-c3nc4ccn5c(=O)[nH]nc5c4cc3-c3ccccc3)cc2)CCC1
Task for the reader: decide whether A or B has the larger residual activity. Returns: label corresponding to the selected item.
B
(B: 93%, A: 14%)
